Measured On: RspA-FAST
Protocol Conditions: PBS pH […] presumably; details in supplement
Readout Kind: pKd
Kindly note that pKd refers to -log10 of the concentration in mol/L and answer with the value alone.

Give recorded pKd. COc1cc(/C=C2\SC(=S)NC2=O)cc(OC)c1O
7.13

----------
Measured On: TsiA-FAST
Protocol Conditions: PBS pH […] presumably; details in supplement
Readout Kind: Kd (nM)
Give just the numeric value; nM need not be written.

Give recorded Kd. COc1cc(/C=C2\SC(=S)NC2=O)cc(OC)c1O
60

----------
Measured On: RspA-splitFAST (assembled NC complex; FRB-RspA(N) + FKBP-RspA(C))
Protocol Conditions: read-out: Kd,F/C; […] each FRB-N and FKBP-C preassembled with […] rapamycin
Readout Kind: Kd (nM)
Give just the numeric value; nM need not be written.

Give recorded Kd. Cc1cc(/C=C2\SC(=S)NC2=O)ccc1O
150
